Molecular target: hNTS2 receptor (Homo sapiens, UniProt O95665)
Construct: membranes prepared from them
Sequence (O95665 whole entry): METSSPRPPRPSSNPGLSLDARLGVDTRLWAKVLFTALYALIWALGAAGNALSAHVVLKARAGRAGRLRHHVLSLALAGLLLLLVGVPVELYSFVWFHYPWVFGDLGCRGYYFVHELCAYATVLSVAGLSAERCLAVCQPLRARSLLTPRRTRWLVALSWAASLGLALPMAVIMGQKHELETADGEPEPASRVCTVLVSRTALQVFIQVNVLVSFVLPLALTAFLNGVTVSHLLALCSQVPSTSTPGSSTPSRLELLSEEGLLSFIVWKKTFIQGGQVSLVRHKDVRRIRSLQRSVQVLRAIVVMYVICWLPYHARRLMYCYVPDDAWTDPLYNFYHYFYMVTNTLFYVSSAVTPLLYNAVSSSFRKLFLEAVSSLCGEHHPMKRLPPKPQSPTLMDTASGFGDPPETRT
Test: Competitive radioligand binding assay on the hNTS2 receptor
Details: ratio IC50 for NTS1 : IC50 for NTS2
Where a SMILES comes first, the peptide text is derived from it. Bridges are numbered along the chain shown (N, C = ends). [ ]: non-standard residue; d: D form. AllylGly = C=CC[C@H](N)C(=O)O; Dab = NCC[C@H](N)C(=O)O
Measured Selectivity values are reported for all entries that follow.

Note down Selectivity recorded for CC(C)C[C@H](NC(=O)[C@H](Cc1ccc(O)cc1)NC(=O)[C@@H]1CCNC(=O)C[C@H](N)C(=O)N[C@@H](CCCCN)C(=O)N[C@@H](CCCCN)C(=O)N1)C(=O)O [compound 105, c[DKKDab]YL] (H-DKK[Dab]YL-OH; lactam 1-4) >67.0

Others:
Note down Selectivity recorded for CC(C)C[C@H](NC(=O)[C@H](Cc1ccc(O)cc1)NC(=O)[C@@H]1CC=CC[C@H](N)C(=O)N[C@@H](CCC(=O)O)C(=O)N[C@@H](CCCCN)C(=O)N1)C(=O)O [compound 88, c[G(All)EKG(All)]YL] (H-[AllylGly]EK[AllylGly]YL-OH; staple 1-4) >9.4
